test: yeast display, Sf9 membrane polyspecificity reagent, FACS + sequencing; frameworks hold sequencing errors
MEASURED_METRIC: polyreactivity (PSR sort gate)

• QVQLVESGGGLVQAGGSLRLSCAASGSIFRYNAKGWYRQAPGKERELVAARRSRGGSTNYADSVKGRFTISRDNAKNTVYLQMNSLKPEDNAVYFCAADGSYTKTTIYIFGGLDFWGQGTQVTVSS = low polyreactivity
• QVQLVESGGGLVQAGGSLRLSCAASGIIFYYYAMGWYRQAPGKERELVAAISKSGGSTYYADSVKGRFTISRDNAKNTVYLQMNRLKPEDTAVYYCAARGPSWLSYNYWGQGTQVTVSS = high polyreactivity
• QVQLLESGGGIVQAGGSHRLRCAASGSIFGTNAMCWYRQATGKERELVAAISLSTGSTYYADSVKGRFTISRDNAKNTVYLQMNSLKPEDTAVYYCAAYYVTPIYYYWGQGTQVTVSS = low polyreactivity
• QVQLVESGGGLVQAGGSLRLSCAASGFIFWSYAMGWYRQAPGKERELVAAINTSTGRTYYADSVKGRFTISRDNAKNTVYLQMNSLKPEDTAVYYCAADLPWGPLFDYWGQGTQVTVSS = low polyreactivity
• QVQLVESGGGLVQAGGSLRLSCAASGSTLSQNAMGWYRQAPGKEREFVADISGAGDSTYYADSVKGRFTISRDNAKNTVYLQMISLKPDDTAVYYCATPSPHVGLKWEYDYWGQGTQVTVSS = low polyreactivity
• QVQLVESGGGLVQAGGSLRLSCAATVLKFGKNPMGSYRQATGKERELVAVISWRGSSTYYADSVKGRFTISRVNAKNTVFLQMNSLKPEDTAVYYCTDVYVYVHYQPGYYWGQGTQVTVSS = low polyreactivity
• QVKHVESVGRLVQAGGSLRLSSASSGRIFRSYAMGCYRQAPGKESEYVAAISRSGGRTYYADSVKGRFTISRDNAKNTVYLQMNSLKPEDSAVYYCAVVDYHVHSSDYNYWGQGTQVTVSS = high polyreactivity
• QVQLVESGGGLVQAGGSLRLSCAASGSTFPDYSKGWYRQAPGKERLLVADITYGGSSTYYADSVKGRFTISSDNAKNTVYLQMNSLKPDDTAVYYCAADTDYYTLIRSVLAYDYWGQGTQVTVSS = low polyreactivity
• QDQHVESGGGLVQAGGSLRLSCAASGRTFGNYAMGWYRQAPGKERELVADITRRGGSTSYADSVKGRFTISRDNAKNTVYLQMNSLKPEDTAVYYCNKAADGSSHYDYWGQGTQVTVSS = low polyreactivity
• QVQLVESGGGLVQAGGSLRLSCAASGRIFGENAMGWYRQAPGKERELVAAITWSGTSTYYADSVKGRFTISRDNAKNTVYLQMNSLKPEDTAVDYCAASATLFSSRGKRYYWGQGTQVTVSS = low polyreactivity
• QVQLVESGGGLVQAGGSLRLSCAASGFTFGSYAMGWYRQAPGKDRELVAAISSNGGNTYYADSVKGRFTISRDNAKNTVYLQMNSLKPEDTAVYYCARDRQSRSLLEYDFWGQGTQVTVSS = high polyreactivity

====

assay: yeast display, Sf9 membrane polyspecificity reagent, FACS + sequencing; frameworks hold sequencing errors
MEASURED_METRIC: polyreactivity (PSR sort gate)

- QVQLVESGGGLVQAGGSLRLSCAASGFIFRTYAMGWYRQAPGKERELVAAITYSAGSTYYADSVKGRFTISRDNAKNTVYLQMNSLKPEDTAVYYCNVRKTWYGYSVTGRYDYWGQGTQVTVSS: low polyreactivity
- QVQRVESGGGLVQAGGSLRLSCAASGRTFDSYAMGWYRPAPGKERELVAVITRGVRTYYADSVKGRFTISRDNAKNTVYLQMNSLKPEDTAVYYCAKERYNANYDTSLYDYWGQGTQVTVSS: low polyreactivity

====

experiment: yeast display, Sf9 membrane polyspecificity reagent, FACS + sequencing; frameworks hold sequencing errors
MEASURED_METRIC: polyreactivity (PSR sort gate)

* QVQLVESGGGLVQAGGSLRLSCAASGFSFLAYAMGWYRQAPGKERELVAAINSSDGTTHYADSVKGRFTISRDNAKNTVYLQMNSLKPEDTAVYYCAVSQVRTGEGYHYWGQGTQVTVSS | low polyreactivity
* QVQLVESGGGLVQAGGSLRLSCAASGRTFATYVMGWYRQAPGKERELVAAISLSGGSTYYADSVKGRFTISRDNAKNTVFLQMNSVKPEDTAVYYCAISWVTSSDYWGQGTQVTVSS | low polyreactivity
* QVQLVESGGGLVQAGGSLRLSCAASGGTFGYNAMGWYRQAPGKERELVAAITGGGRTYYADSVKGRFTISRDNAKNTVYLQMNSLKPEDTAVYYCNADYAYYSYDYWGQGTQVTVSS | low polyreactivity
* QVQLVESGGGLVQAGGSLRISCAASGRNFPNYAMGWYRQAPGKERELVAAITSSGGSTYYADSVKGRFTISRDNAKNTVYLQMNSLKPEDTAVYYCNAGSWIRNDYWGQGTQVTVSS | high polyreactivity
* QVQIVESGGGLVQAGGSLRLSCAASGLTFILYAMGWYRQAPGKERELVAAISYDGGSTYYADSVKGRFTISRDNAKNTVYLQMNSLKPEDTAVYYCAADSYYYQGYRRYNYDYWGQGTQVTVSS | high polyreactivity
* QVQLVESGGGLVQAGGSLRLSCAASGRIFQKYAMGWSRQAPGKERELVAAISYGGGRTYYADSVKGRFTISRDNAKNTVYLQMNSLKPEDTAVYYCATDYKYAAPTVIESDYWGQGTQVTVSS | high polyreactivity
* QVQLVESGGGLVQAGGSLRLTCAASGSTFYSNAMGWYRQATGKERELVASIRFSGVITTYADSVKGRFTISRDNAKNTVYLQMNSLKPEDTAVYYCAAGYLSTTAYDYWGQGTQVTVSS | low polyreactivity
* QVQLVESGGGLVQAGGSLRLSCDASGSIFVLNAMGWYRQAPGKERELVAAISYSGGSTYYADSVKGRFTISRDNAKNTVYLQMNSLKPEDTAVYYCAADLVSYYGYSSEYEYWGQGTQVTVSS | high polyreactivity
* QVQLVESGGGLVQAGGSLRLSCAASGRTVSFYDMGWYRQAPGKERELVAAINSGSSTYYADSVKGRCTISRDNANTTVYLQMNSLKPEDTAVYYCADEPYFWWQNEYWGQGTQVTVSS | high polyreactivity
* QVQLVESGGGLFQAGGSLRLSCAASGSTFGNNAMGWYRQAPGKERELVAAISRSGGNTYYADSVKGRFTISRDNAKNTVYLQMNSLKPEDTAVYYCAAGKLYAAGVYYLRRLYYWGQGTQVTVSS | high polyreactivity
* QVQLVESGGGLVQAGGSLRLSCAASGSTFSGYAMGWYRQAPGKERDLVAAITKSGGRTYYADSVKGRFTISRDNAQNTVYLQMNSLKQEDTAVYYCAKAYPGTYREYDYWGQGTQVTVSS | high polyreactivity
* QVQLVESGGGLVQAGGSLRLSCAASGFTFVPYAMGWYRQAPGKERELVAAISSRGDSTYYADSVKGRFTISRDNAKNTVYLQMNSLKPEDTAVYYCNARTTPHMDYWGQGTQVTVSS | low polyreactivity
* QVQLQESGGGLVQAGGSLRLSCASSGTISPLPAMGWYRQAPGKEREYVAGIDTGAITNYADSVKGRFTISRDNAKNTVYLQMNSLQPEDTAVYYCAVFPAAYDYYESYYTYWGQGTQVTVSS | low polyreactivity
* QVQHVESGGGLVQAGGSLRLSCAASGFTFLNYSMGWYRQAPGKERELVAAISFSTGRTYYADSVKGRFTISRDNAKNTVYLQMNSLKPEDTAVYYCNAERGFSDYWGQGTQVTVSS | high polyreactivity
* QVHLVESGGGLVQAGGSLRLSCADSGLTFVFYAMGWYRPAPGKERELVAAISWSTGRTYYPDSVKGRFTISRDTAKNTVYLQMNSLNPEDSAVYYCAASYLGRKYVYWGQGTQVTVSS | high polyreactivity
* QGQLVESGGGLVQAGGSLRLSCAASGFTSSRNAMGWYIQEAGKERELVATISSGGDTYYADSVKGRFTISRDNAKNTVYLQMNSLKPEDTAVYYCNKDPLYAWGYDYWGQGTQVTVSS | low polyreactivity
* QVQLVESGGGLVQAGGSLRLSCAASGFIFRYYAMGWYRPAPGKERELVAAISASGGSTYYADSVKGRCTISRDNAKNSDYLLMNSLKPEDTAVYYCATYYQKYRSEYWGQGTQVTVSS | high polyreactivity
* QVQLVESGGGLVQAGGSLRLSSAASGRIFTIYAMGWYRQAPGKERELVATISRRGGSTYYADSVKGRFTISRDNAKNTVYLQMNSLKPEDTAGYYCAADSVITWWAYDYWGQGTQVTVSS | high polyreactivity
* QFHLVESGGGLFQAGGSLRISCAASGRTLLVNAMGWYRQAPGKERELVAVITRGGSTNYADSVKGRFTISRDNAKNTVYLQMNSLKPEDTAVYYCAKQFSPYRSYGPVVRYDYWGQGTQVTVSS | low polyreactivity
* QDQLVESVGGVVQAGGSLRLSGAASGIIFVAYAMGWYRQAPGKERELVASITYSGGSTNYADSVKGRFTISRDNAKNTVYLQLNSLQPEETAVDYCARDRDPVYASVLWDDYGYWGQGTQVTVSS | low polyreactivity
* QVQLVQSGGGLVQAGGSLRLSCAASGYIFNFNPMGWNRQAPGKERELVAVISDRDDTTYYADSVKGRFTISRDNAKNTVYLQMNSMKPEDTAVYYCAAVGDTYVDDQYDYWGQGTQVTVSS | low polyreactivity
